Hi there, I'd appreciate the recorded MBP phosphorylation Average ± SEM for every entry that follows.
- measurementTarget: LRRK2 WT (Homo sapiens)
- Sequence (Q5S007 whole entry): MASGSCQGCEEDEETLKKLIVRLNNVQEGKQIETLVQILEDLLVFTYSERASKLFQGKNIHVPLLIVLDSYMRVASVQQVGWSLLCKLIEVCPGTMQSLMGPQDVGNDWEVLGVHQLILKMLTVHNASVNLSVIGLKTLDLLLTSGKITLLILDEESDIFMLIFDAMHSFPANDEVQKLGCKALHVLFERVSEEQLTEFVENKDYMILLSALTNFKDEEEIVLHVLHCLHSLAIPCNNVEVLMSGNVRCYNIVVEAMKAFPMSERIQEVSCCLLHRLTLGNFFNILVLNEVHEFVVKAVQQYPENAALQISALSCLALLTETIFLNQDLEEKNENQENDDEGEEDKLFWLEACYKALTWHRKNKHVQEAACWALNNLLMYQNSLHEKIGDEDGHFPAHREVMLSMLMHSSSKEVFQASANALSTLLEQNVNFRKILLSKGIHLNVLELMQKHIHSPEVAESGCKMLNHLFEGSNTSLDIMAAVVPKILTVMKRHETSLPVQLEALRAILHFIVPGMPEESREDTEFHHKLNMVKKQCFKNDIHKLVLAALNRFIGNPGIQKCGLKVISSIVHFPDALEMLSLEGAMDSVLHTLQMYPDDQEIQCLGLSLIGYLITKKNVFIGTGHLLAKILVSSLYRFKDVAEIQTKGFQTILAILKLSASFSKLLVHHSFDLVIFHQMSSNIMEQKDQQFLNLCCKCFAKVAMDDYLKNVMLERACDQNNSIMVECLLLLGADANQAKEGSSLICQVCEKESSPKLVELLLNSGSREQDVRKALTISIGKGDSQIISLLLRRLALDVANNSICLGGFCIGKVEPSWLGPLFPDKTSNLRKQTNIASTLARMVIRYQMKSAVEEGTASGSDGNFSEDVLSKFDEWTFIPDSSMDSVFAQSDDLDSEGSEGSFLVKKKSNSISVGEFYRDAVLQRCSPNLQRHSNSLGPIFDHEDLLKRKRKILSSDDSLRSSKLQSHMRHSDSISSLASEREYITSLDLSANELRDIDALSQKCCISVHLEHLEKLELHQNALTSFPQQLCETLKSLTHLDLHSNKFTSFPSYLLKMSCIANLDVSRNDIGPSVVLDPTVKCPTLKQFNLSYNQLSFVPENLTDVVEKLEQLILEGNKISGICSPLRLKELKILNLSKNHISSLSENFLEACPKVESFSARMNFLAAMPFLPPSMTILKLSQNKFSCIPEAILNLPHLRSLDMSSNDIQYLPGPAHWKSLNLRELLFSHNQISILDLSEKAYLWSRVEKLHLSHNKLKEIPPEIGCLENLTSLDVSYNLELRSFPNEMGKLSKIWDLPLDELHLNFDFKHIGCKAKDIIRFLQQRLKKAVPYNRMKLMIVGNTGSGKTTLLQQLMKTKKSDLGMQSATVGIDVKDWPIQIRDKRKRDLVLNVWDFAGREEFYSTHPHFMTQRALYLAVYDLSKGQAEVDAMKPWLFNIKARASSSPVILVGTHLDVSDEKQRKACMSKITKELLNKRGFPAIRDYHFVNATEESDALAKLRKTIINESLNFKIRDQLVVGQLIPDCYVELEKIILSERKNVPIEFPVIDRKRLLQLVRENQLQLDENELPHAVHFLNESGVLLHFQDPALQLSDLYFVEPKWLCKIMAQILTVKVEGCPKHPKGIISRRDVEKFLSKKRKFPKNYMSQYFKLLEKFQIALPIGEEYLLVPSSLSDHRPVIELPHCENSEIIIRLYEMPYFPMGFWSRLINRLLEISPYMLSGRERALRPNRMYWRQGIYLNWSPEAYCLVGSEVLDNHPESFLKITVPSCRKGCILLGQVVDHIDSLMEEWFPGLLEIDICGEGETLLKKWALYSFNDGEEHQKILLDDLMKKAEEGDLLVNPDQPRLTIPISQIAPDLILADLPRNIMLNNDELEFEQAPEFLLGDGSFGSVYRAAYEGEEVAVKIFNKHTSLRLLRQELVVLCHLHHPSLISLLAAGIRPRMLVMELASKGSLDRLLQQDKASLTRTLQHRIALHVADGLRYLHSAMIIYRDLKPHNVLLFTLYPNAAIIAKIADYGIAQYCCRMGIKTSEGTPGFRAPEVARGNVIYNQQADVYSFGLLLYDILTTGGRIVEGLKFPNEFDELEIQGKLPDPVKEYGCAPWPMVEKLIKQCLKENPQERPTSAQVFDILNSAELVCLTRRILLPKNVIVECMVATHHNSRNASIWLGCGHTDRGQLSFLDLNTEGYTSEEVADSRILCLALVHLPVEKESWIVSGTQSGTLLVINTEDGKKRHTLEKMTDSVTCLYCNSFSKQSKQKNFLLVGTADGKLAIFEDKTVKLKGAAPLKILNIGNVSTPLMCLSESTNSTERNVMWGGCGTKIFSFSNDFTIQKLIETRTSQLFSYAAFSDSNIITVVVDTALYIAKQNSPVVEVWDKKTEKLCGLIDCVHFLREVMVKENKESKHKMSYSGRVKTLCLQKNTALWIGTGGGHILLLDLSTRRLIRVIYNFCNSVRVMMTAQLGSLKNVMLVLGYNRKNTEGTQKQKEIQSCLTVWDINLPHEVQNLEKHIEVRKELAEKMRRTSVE
- measurementNotes: In vitro kinase assay: LRRK2-mediated MBP phosphorylation
- Type: biochemical
- condition: compound 16 μM; 30° C., 15 min; normalized to absence of compound; mean ± S.E.M. of three experiments

Report MBP phosphorylation Average ± SEM for "COC(=O)/C=C/c1cc(O)ccc1O" tested on LRRK2 WT (Homo sapiens).
93.9 ± 11.5 % of control

Missing value: MBP phosphorylation Average ± SEM, LRRK2 WT (Homo sapiens), entry "COc1cccc(-c2cc(=O)c3ccccc3o2)c1N" . Fill in?
77.5 ± 55.0 % of control

# returns recorded MBP phosphorylation Average ± SEM (system: LRRK2 WT (Homo sapiens)) for "O=c1cc(N2CCOCC2)oc2c(-c3ccccc3)cccc12"
75.5 ± 3.1 % of control

Which measured MBP phosphorylation Average ± SEM belongs to "CC1(C)[C@H](C=C(Cl)Cl)[C@@H]1C(=O)O[C@H](C#N)c1cccc(Oc2ccccc2)c1" , tested on LRRK2 WT (Homo sapiens)?
76.9 ± 13.7 % of control

Report MBP phosphorylation Average ± SEM for "O=P(O)(O)CCc1ccc2ccccc2c1O" tested on LRRK2 WT (Homo sapiens).
138.2 ± 36.9 % of control

# value lookup — system LRRK2 WT (Homo sapiens), readout MBP phosphorylation Average ± SEM, item "O=S(=O)(c1cccc2c(Cl)cccc12)N1CCCNCC1"
120.2 ± 39.6 % of control

Form: Entry = C#COC1C(C(=O)O)[C@H]2CC[C@@H]1O2 (stereo partly drawn) | System = LRRK2 WT (Homo sapiens) | MBP phosphorylation Average ± SEM = ____
128.9 ± 9.4 % of control

API: value(readout=MBP phosphorylation Average ± SEM, system=LRRK2 WT (Homo sapiens)) for record "O=C1Nc2ccccc2/C1=C1\Nc2ccccc2C1=O"
110.3 ± 28.4 % of control

Requested read-out MBP phosphorylation Average ± SEM, target or system LRRK2 WT (Homo sapiens), entry "COC[C@H]1OC(=O)c2coc3c2[C@@]1(C)C1=C(C3=O)[C@@H]2CCC(=O)[C@@]2(C)C[C@H]1OC(C)=O"
66.8 ± 29.1 % of control

---

- measurementTarget: LRRK2 G2019S (Homo sapiens, UniProt Q5S007, G2019S)
- Sequence (Q5S007 whole entry G2019S): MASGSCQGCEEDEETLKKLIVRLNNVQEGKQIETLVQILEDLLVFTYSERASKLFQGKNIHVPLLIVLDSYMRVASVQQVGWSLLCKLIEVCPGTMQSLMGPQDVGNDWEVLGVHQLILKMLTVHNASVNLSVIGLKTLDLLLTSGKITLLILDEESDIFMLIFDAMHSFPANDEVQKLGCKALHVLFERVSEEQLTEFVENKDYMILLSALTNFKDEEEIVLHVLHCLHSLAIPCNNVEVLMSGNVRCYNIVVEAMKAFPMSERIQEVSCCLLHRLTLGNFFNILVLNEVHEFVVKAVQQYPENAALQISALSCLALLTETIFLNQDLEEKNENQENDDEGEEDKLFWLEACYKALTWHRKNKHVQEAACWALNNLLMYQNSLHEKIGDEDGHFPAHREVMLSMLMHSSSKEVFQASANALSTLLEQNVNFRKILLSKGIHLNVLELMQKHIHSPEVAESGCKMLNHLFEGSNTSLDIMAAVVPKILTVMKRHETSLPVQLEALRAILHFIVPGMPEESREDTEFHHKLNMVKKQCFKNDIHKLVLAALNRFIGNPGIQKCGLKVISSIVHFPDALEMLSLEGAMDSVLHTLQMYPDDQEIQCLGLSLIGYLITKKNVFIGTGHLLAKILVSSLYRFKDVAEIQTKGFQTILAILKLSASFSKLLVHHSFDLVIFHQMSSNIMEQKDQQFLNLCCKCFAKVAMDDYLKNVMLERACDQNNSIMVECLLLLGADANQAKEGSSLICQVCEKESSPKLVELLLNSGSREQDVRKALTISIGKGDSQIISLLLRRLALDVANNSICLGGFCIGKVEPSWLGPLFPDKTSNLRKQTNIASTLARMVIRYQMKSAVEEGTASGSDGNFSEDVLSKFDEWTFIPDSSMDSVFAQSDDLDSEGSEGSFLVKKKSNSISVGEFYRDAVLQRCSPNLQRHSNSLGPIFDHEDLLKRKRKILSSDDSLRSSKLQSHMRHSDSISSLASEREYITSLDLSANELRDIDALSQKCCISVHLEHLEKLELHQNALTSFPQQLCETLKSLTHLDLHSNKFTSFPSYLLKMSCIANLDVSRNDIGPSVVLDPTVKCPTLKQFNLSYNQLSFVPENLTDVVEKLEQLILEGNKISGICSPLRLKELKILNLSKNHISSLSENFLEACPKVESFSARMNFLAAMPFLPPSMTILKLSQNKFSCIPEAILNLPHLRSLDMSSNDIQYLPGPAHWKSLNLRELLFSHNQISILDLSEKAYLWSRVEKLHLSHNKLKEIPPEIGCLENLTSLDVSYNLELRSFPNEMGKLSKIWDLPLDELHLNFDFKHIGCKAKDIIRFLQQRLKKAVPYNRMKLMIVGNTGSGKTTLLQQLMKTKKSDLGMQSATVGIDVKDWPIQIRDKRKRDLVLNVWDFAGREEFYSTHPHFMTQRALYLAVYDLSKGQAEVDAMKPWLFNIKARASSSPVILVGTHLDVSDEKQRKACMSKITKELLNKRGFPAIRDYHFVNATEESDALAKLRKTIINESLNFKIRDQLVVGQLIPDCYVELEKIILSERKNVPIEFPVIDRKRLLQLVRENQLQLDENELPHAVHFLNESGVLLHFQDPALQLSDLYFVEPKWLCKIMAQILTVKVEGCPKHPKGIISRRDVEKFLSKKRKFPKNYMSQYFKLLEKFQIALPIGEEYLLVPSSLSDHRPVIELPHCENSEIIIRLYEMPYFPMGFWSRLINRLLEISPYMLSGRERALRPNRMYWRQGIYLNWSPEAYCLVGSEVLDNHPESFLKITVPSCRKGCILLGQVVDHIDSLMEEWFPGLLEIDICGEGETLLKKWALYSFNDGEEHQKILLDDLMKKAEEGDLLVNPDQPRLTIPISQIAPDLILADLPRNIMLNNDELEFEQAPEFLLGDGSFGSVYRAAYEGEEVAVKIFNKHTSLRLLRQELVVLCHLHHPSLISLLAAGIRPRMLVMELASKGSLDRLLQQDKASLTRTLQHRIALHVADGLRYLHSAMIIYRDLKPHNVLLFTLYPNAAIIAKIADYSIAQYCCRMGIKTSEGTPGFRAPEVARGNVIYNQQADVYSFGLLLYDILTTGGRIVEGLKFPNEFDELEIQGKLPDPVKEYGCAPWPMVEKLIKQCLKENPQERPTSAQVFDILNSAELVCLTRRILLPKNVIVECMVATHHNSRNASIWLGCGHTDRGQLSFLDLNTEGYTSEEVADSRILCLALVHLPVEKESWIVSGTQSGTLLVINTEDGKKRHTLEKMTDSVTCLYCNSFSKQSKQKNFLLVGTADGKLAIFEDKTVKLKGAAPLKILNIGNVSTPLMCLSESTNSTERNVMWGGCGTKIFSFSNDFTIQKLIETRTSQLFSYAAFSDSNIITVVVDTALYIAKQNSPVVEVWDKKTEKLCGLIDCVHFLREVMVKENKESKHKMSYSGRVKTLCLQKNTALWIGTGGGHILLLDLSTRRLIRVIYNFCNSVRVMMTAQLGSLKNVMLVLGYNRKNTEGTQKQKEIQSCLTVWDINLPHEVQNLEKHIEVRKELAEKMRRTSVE
- measurementNotes: In vitro kinase assay: G2019S LRRK2-mediated MBP phosphorylation
- Type: biochemical
- condition: Table 2; mean of three experiments
readoutType: IC50 (µM)
Return type: number; implicit unit µM.

GET /values?readout=IC50&item= COc1c(C=O)c(O)cc2c1C(=O)c1ccccc1C2=O [Inhibitor 22, Damnacanthal, reference compound]
9.45

Recorded IC50 for O=C1c2ccccc2-c2n[nH]c3cccc1c23 [Inhibitor 68, SP600125, reference compound] , please?
5

Which measured IC50 value corresponds to O=C1Nc2ccccc2/C1=C1/Nc2ccccc2/C1=N\O [Inhibitor 70, Indirubin-3-monooxine] ?
1.31

Query: IC50; subject: Cn1cc(C2=C(c3cn(CCCSC(=N)N)c4ccccc34)C(=O)NC2=O)c2ccccc21 [Inhibitor 33, Ro31-8220, reference compound]
5.16

Request the reported IC50 associated with Nc1ncnc2c1c(I)cn2[C@@H]1O[C@H](CO)[C@@H](O)[C@H]1O [Inhibitor 49, 5-iodo-tubercidin, reference compound]
3.41

Returns the measured IC50 for the input compound. Input: CN(C)CCCn1cc(C2=C(c3c[nH]c4ccccc34)C(=O)NC2=O)c2ccccc21 [Inhibitor 31, GP109203X, reference compound]
2.62

Report IC50 for O=C1Nc2ccc(I)cc2/C1=C/c1cc(Br)c(O)c(Br)c1 [Inhibitor 56, GW5074] please.
0.88

This collection of values is drawn from patent US20150018301A1.
